test summary: RP-HPLC retention as measure of hydrophobicity
Assay type: physicochemical
experimental context: percent of acetonitrile at the retention time; RP-HPLC, C18 column, linear gradient 10–90% acetonitrile in water with 0.1% TFA in 40 min, 1.8 mL/min
Where a SMILES comes first, the peptide text is derived from it. [ ]: non-standard residue; d: D form. The star is where a group is joined. Octanoyl = CCCCCCCC(=O)*
property measured: relative hydrophobicity (% ACN)
Write the value in % ACN as a bare number.

Q. Report relative hydrophobicity (% ACN) for CCCCCCCC(=O)N[C@@H](CCCCN)C(=O)N[C@@H](CCCCN)C(=O)N[C@H](CC(C)C)C(=O)N[C@H](CC(C)C)C(=O)N[C@@H](CCCCN)C(=O)N[C@@H](CC(C)C)C(=O)N[C@@H](CC(C)C)C(=O)N[C@H](CC(C)C)C(=O)N[C@@H](CCCCN)C(=O)N[C@H](CC(C)C)C(=O)N[C@@H](CC(C)C)C(=O)N[C@@H](CCCCN)C(N)=O [C8-D,L-K5L7] (Octanoyl-KK[dL][dL]KLL[dL]K[dL]LK-NH2) please.
A. 68.2

Q. Thanks! And CC(C)C[C@H](NC(=O)[C@H](CC(C)C)NC(=O)[C@@H](CCCCN)NC(=O)[C@H](CC(C)C)NC(=O)[C@H](CC(C)C)NC(=O)[C@H](CCCCN)NC(=O)[C@@H](CCCCN)NC(=O)[C@@H](CC(C)C)NC(=O)[C@H](CC(C)C)NC(=O)[C@@H](CCCCN)NC(=O)[C@H](CCCCN)NC(=O)[C@H](CC(C)C)NC(=O)[C@@H](CC(C)C)NC(=O)[C@H](CCCCN)NC(=O)[C@@H](N)CC(C)C)C(N)=O [D,L-K6L9] (H-LK[dL]LK[dK]L[dL][dK]KLL[dK]LL-NH2; N-terminus assumed) ?
A. 65.4

Q. Thanks! And CC(C)C[C@H](NC(=O)[C@H](CC(C)C)NC(=O)[C@@H](Cc1c[nH]cn1)NC(=O)[C@H](CC(C)C)NC(=O)[C@H](CC(C)C)NC(=O)[C@H](Cc1c[nH]cn1)NC(=O)[C@@H](Cc1c[nH]cn1)NC(=O)[C@@H](CC(C)C)NC(=O)[C@H](CC(C)C)NC(=O)[C@@H](Cc1c[nH]cn1)NC(=O)[C@H](Cc1c[nH]cn1)NC(=O)[C@H](CC(C)C)NC(=O)[C@@H](CC(C)C)NC(=O)[C@H](Cc1c[nH]cn1)NC(=O)[C@@H](N)CC(C)C)C(N)=O [D,L-H6L9] (H-LH[dL]LH[dH]L[dL][dH]HLL[dH]LL-NH2; N-terminus assumed) ?
A. 68.6
